The measurements presented in this section are drawn from patent US8317991B2.

Experiment: Electrokinetic cross-membrane isolation (ECMI) of basic drugs; recovery in acceptor solution by capillary electrophoresis
Format: physicochemical
Settings: optimal ECMI; 300 μl sample to 30 μl acceptor
Counter-ions that a name gives are not always drawn.
Quick reference: Enrichment of the listed items.
Form rule: numeric answer, no unit written next to it.

Consider the worked cases shown below.
[[record]]
molecule = "CN(C)C(=O)C(CCN1CCC(O)(c2ccc(Cl)cc2)CC1)(c1ccccc1)c1ccccc1 [Loperamide, loperamide hydrochloride]"
result_value = 7.6

[[record]]
molecule = "CCOC(=O)C1(c2ccccc2)CCN(C)CC1 [Pethidine, Pethidine hydrochloride]"
result_value = 7.0

[[record]]
molecule = "O=C(CCCN1CCC(O)(c2ccc(Cl)cc2)CC1)c1ccc(F)cc1 [Haloperidol, haloperidol]"
result_value = 7.2

[[record]]
molecule = "CNCCC=C1c2ccccc2CCc2ccccc21 [Nortriptyline, nortriptyline hydrochloride]"
result_value = 7.0


QUERY: For the molecule shown here, CCC(=O)C(CC(C)N(C)C)(c1ccccc1)c1ccccc1 (centres unmarked) [Methadone, methadone hydrochloride] , give the reported Enrichment.
RESULT: 7.9
